# test system: T1, Claudin-9 (CLDN9) (human, UniProt O95484 1-217)
# T1 construct: whole, on cells; also called CLDN9-GFP; CLDN9-mGFP
# T1 sequence (looked up): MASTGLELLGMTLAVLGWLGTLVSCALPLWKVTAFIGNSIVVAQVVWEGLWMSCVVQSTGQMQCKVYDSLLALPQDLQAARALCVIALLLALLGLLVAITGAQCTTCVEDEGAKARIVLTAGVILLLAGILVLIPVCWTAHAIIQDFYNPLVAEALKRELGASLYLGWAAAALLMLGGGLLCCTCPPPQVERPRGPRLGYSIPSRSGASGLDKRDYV
# assay comment: FACS titration of labelled mAb on HEK293T CLDN9-mGFP cells
pEC50: −log10 of the molar value.
Classify by measured pEC50: fulfilled if it is equal to or exceeds 6, not fulfilled if it is smaller.

Asked: Decide: is the reported value of pEC50 for AB5 (antibody, V domains shown, full-length IgG (ExpiCHO)) VH: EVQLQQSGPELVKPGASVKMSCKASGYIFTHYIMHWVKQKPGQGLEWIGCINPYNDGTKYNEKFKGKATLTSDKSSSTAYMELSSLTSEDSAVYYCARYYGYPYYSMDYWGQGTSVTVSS VL: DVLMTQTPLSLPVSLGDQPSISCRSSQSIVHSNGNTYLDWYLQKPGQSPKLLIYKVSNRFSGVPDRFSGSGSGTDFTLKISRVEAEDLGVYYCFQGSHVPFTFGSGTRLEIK equal to or greater than 6?
Given back: fulfilled

Asked: Decide: is the reported value of pEC50 for AB6 (antibody, V domains shown, full-length IgG (ExpiCHO)) VH: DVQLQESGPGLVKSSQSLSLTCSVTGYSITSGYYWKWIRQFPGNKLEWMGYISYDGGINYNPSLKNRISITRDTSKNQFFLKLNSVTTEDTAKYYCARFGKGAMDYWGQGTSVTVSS VL: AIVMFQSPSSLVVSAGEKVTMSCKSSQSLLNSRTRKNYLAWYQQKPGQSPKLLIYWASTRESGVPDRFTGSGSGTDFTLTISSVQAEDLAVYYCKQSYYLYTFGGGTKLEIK equal to or greater than 6?
Given back: not fulfilled

Asked: Decide: is the reported value of pEC50 for AB12 (antibody, V domains shown, full-length IgG (ExpiCHO)) VH: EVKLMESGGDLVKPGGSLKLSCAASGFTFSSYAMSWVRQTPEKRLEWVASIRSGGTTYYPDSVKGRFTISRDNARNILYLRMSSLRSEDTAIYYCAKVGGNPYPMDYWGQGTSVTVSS VL: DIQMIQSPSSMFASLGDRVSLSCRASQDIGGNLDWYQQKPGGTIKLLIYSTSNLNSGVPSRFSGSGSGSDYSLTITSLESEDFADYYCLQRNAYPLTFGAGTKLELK equal to or greater than 6?
Given back: not fulfilled

Asked: Decide: is the reported value of pEC50 for AB7 (antibody, V domains shown, full-length IgG (ExpiCHO)) VH: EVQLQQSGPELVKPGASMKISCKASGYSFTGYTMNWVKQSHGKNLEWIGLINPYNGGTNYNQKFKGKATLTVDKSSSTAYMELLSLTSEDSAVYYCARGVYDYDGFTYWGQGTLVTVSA VL: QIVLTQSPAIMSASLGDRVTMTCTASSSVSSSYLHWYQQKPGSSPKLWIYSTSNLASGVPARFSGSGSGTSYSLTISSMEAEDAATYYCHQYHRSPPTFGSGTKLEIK equal to or greater than 6?
Given back: not fulfilled

Asked: Decide: is the reported value of pEC50 for AB4 (antibody, V domains shown, full-length IgG (ExpiCHO)) VH: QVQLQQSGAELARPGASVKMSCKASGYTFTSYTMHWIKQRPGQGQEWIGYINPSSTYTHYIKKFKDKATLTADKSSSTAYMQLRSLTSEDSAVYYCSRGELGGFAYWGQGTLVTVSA VL: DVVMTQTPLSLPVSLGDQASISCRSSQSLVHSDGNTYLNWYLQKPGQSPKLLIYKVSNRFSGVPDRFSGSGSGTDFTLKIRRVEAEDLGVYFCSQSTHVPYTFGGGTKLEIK equal to or greater than 6?
Given back: not fulfilled
